B1: NP_009172.2 (parent)
chain: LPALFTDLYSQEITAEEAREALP

# Variants of: B1
# experimental protocol: protein stability index of a GFP-peptide fusion (GPS, HEK-293T) (PSI 1-6); higher = more stable;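 note: lentivirally expressed fusion library, cells FACS-sorted into six equal-sized GFP/DsRed ratio bins, PSI computed from sequencing read fractions per bin weighted by bin number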
# condition context: c terminus: native
Measured protein stability index, listed per entry for reference.
Kindly provide the number alone.

Would you please look over these solved cases?
- variant annotation: "T6N"
  protein stability index: 4.77
- variant annotation: "T6W"
  protein stability index: 4.06
- variant annotation: "P23H"
  protein stability index: 4.15
- variant annotation: "E20G"
  protein stability index: 2.11
- variant annotation: "P2E"
  protein stability index: 3.51
- variant annotation: "E20Y"
  protein stability index: 3.08
- variant annotation: "L1N"
  protein stability index: 2.86
- variant annotation: "E20V"
  protein stability index: 2.6
- variant annotation: "R19V"
  protein stability index: 2.8
- variant annotation: "E12I"
  protein stability index: 3.15

The record that follows has no protein stability index shown yet.
Q: Give the measured protein stability index for F5P
A: 5.3
